responders at 20 mg/kg values by entry
- Tested on: Aspergillus fumigatus AF293
- assay.remarks: Lung Aspergillus fumigatus infection in immunosuppressed mice, intravenous administration
- measurement.conditions: Aspergillus fumigatus, AF293, in Mus musculus, iv, 24 h, read-out: survival rate of mice, day 1, 20 mg/kg tail vein once daily for 5 days; day 1

compound	responders at 20 mg/kg [%]
CC[C@@H]([C@H](C)O)n1ncn(-c2ccc(N3CCN(c4ccc(OC[C@@H]5CO[C@@](Cn6c[n+](C(C)OC(=O)N(C)c7ncccc7COC(=O)C[C@H](N)C(=O)O)cn6)(c6ccc(F)cc6F)C5)cc4)CC3)cc2)c1=O (some centres unmarked)	100
CC[C@@H]([C@H](C)OC(=O)[C@@H](N)CO)n1ncn(-c2ccc(N3CCN(c4ccc(OC[C@@H]5CO[C@@](Cn6c[n+](C(C)OC(=O)N(C)c7ncccc7COC(=O)[C@@H](N)CCCN)cn6)(c6ccc(F)cc6F)C5)cc4)CC3)cc2)c1=O (some centres unmarked)	100

###

- assay.remarks: Solid stability test (stability chamber, HPLC total impurity)
- Type: physicochemical
- measurement.conditions: solid, packaged, 25° C.±2° C., relative humidity 60%±2%
// boundary case: Total impurity increment in 30 days equal to 0.5% maps to condition not met; strictly smaller maps to condition met

compound	cat
CC[C@@H]([C@H](C)OC(=O)OC(C)OC(=O)CNC)n1ncn(-c2ccc(N3CCN(c4ccc(OC[C@@H]5CO[C@@](Cn6cncn6)(c6ccc(F)cc6F)C5)cc4)CC3)cc2)c1=O.Cl (stereo partly drawn) [ST0053]	condition not met
CCC(O[C@@H](C)[C@H](CC)n1ncn(-c2ccc(N3CCN(c4ccc(OC[C@@H]5CO[C@@](Cn6cncn6)(c6ccc(F)cc6F)C5)cc4)CC3)cc2)c1=O)OP(=O)([O-])[O-].[Na+].[Na+] (stereo partly drawn) [ST0093]	condition not met
CC[C@@H]([C@H](C)O)n1ncn(-c2ccc(N3CCN(c4ccc(OC[C@@H]5CO[C@@](Cn6c[n+](C(C)OC(=O)N(C)c7ncccc7COC(=O)[C@@H](N)[C@@H](C)O)cn6)(c6ccc(F)cc6F)C5)cc4)CC3)cc2)c1=O (stereo partly drawn) [ST0106]	condition met
CC[C@@H]([C@H](C)O)n1ncn(-c2ccc(N3CCN(c4ccc(OC[C@@H]5CO[C@@](Cn6c[n+](C(C)OC(=O)N(C)c7ncccc7COC(=O)[C@@H](N)CC(N)=O)cn6)(c6ccc(F)cc6F)C5)cc4)CC3)cc2)c1=O (stereo partly drawn) [ST0103]	condition met
CC[C@@H]([C@H](C)OC(=O)OCCOCCOP(=O)([O-])[O-])n1ncn(-c2ccc(N3CCN(c4ccc(OC[C@@H]5CO[C@@](Cn6cncn6)(c6ccc(F)cc6F)C5)cc4)CC3)cc2)c1=O.[Na+].[Na+] [ST0060]	condition not met
CC[C@@H]([C@H](C)O)n1ncn(-c2ccc(N3CCN(c4ccc(OC[C@@H]5CO[C@@](Cn6c[n+](C(C)OC(=O)N(C)c7ncccc7COC(=O)CN)cn6)(c6ccc(F)cc6F)C5)cc4)CC3)cc2)c1=O (stereo partly drawn) [ST0101]	condition met
CC[C@@H]([C@H](C)OC(=O)OC(C)OC(=O)CNP(=O)([O-])[O-])n1ncn(-c2ccc(N3CCN(c4ccc(OC[C@@H]5CO[C@@](Cn6cncn6)(c6ccc(F)cc6F)C5)cc4)CC3)cc2)c1=O.[Na+].[Na+] (stereo partly drawn) [ST0055]	condition not met
CC[C@@H]([C@H](C)O)n1ncn(-c2ccc(N3CCN(c4ccc(OC[C@@H]5CO[C@@](Cn6c[n+](C(C)OC(=O)N(C)c7ncccc7COC(=O)[C@@H](N)CCNC)cn6)(c6ccc(F)cc6F)C5)cc4)CC3)cc2)c1=O (stereo partly drawn) [ST0040]	condition not met
CC[C@@H]([C@H](C)O)n1ncn(-c2ccc(N3CCN(c4ccc(OC[C@@H]5CO[C@@](Cn6c[n+](C(C)OC(=O)N(C)c7ncccc7COC(=O)[C@@H](N)CO)cn6)(c6ccc(F)cc6F)C5)cc4)CC3)cc2)c1=O (stereo partly drawn) [ST0105]	condition met
